- system: T1, Peptide-2 (human, phosphothreonine 212, phosphothreonine 217 (tau 2N4R numbering); short chain biotin (SCBiot) and dPEG4 at the N-terminus; amide at the C-terminus)
- T1 construct: also called pT212/pT217-tau peptide (Peptide-2)
- T1 sequence (peptide, as listed by the source): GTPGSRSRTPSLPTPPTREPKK
- assay-explanation: SPR ProteOn, mAb captured, peptide as analyte; range of n=2
Catalogue of Kd readings, one per entry.

B252 (antibody, human IgG1, V domains shown, Humanized (HFA) PT3 variant, human IgG1/kappa; also called VH93/VL80) VH: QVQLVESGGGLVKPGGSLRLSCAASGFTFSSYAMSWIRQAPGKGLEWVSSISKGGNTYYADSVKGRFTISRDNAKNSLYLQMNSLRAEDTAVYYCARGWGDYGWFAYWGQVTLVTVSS VL: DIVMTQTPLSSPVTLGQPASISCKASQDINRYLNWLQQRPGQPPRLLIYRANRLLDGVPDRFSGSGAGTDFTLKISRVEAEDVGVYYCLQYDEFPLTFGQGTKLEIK | 0.126 to 0.217 nM

Let's switch to this binder now.
Query :: Record request: Kd value, item B280 (antibody, human IgG1, V domains shown, Humanized (HFA) PT3 variant, human IgG1/kappa; also called VH91/VL80) VH: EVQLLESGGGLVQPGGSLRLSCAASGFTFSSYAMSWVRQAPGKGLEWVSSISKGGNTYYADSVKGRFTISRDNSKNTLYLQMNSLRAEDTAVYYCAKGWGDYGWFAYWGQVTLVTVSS VL: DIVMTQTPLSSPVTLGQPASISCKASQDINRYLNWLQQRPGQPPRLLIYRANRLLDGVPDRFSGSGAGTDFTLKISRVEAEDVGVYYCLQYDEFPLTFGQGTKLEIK
Result :: 0.418 to 1.12 nM
